EXPERIMENTAL_DETAILS: in vivo
STATED_CONDITIONS: female, NMRI nude (nu/nu), mouse, total radioactivity, Uptake (%ID/g) gall bladder (bile)
QUANTITY_KIND: tissue uptake at 10 min (%ID/g)
Number in %ID/g, nothing else.

// recorded tissue uptake at 10 min for CC[C@H](C)[C@H](NC(=O)[C@@H](NC(=O)[C@@H]1CCCN1C(=O)[C@H](CCCNC(=N)N)NC(=O)[C@H](CCCNC(N)=NC(=O)NCCCCNC(=O)CN1CCN(CC(=O)O)CCN(CC(=O)O)CCN(CC(=O)O)CC1)NC)C(C)(C)c1ccc(O)cc1)C(=O)N[C@@H](CC(C)C)C(=O)O [[^68Ga]56, metal not drawn] : 1.1

###

EXPERIMENTAL_DETAILS: in vivo
STATED_CONDITIONS: female, NMRI nude (nu/nu), mouse, total radioactivity, Uptake (%ID/g) intestine
QUANTITY_KIND: tissue uptake at 10 min (%ID/g)
Report as a plain number; the unit %ID/g is understood.

So, CC[C@H](C)[C@H](NC(=O)[C@@H](NC(=O)[C@@H]1CCCN1C(=O)[C@H](CCCNC(=N)N)NC(=O)[C@H](CCCNC(N)=NC(=O)NCCCCNC(=O)CN1CCN(CC(=O)O)CCN(CC(=O)O)CCN(CC(=O)O)CC1)NC)C(C)(C)c1ccc(O)cc1)C(=O)N[C@@H](CC(C)C)C(=O)O [[^68Ga]56, metal not drawn] ? Its tissue uptake at 10 min was 1.8

###

EXPERIMENTAL_DETAILS: in vitro
Type: in vitro ADME
STATED_CONDITIONS: human, plasma, pH 7.4, % Intact Peptide in Plasma after 1 h
Method: The concentration of the peptides in plasma/PBS (1:2 v/v) was 80 and 4 μM (recovery determination) or 100 μM (stability tests). Data analysis was based on UV detection at 220 nm (8, 9, 11, 12, 14-18, 21-23, 38-49, and 54-57) or fluorescence detection at 275/305 nm (19 and 20). […] Instead, the recovery ratios determined for the previously reported, structurally closely related peptide […] […]
QUANTITY_KIND: remaining at 1 h, 100 µM (%)
Just the number please, in %, no unit attached.

// field: remaining at 1 h, 100 µM; key: CC[C@H](C)[C@H](NC(=O)[C@H](NC(=O)[C@@H]1CCCN1C(=O)[C@H](CCCNC(=N)N)NC(=O)[C@H](CCCNC(=N)N)NC)C(C)(C)c1ccc(O)cc1)C(=O)N[C@@H](CC(C)C)C(=O)O ; value = 96

For CCC(CC)(NC(=O)[C@H](Cc1ccc(O)cc1)NC(=O)[C@@H]1CCCN1C(=O)[C@H](CCCNC(=N)N)NC(=O)[C@H](CCCNC(=N)N)NC)C(=O)N[C@@H](CC(C)C)C(=O)O the molecule record lists remaining at 1 h, 100 µM as 93

molecule CC[C@](C)(NC(=O)[C@H](Cc1ccc(O)cc1)NC(=O)[C@@H]1CCCN1C(=O)[C@H](CCCNC(=N)N)NC(=O)[C@H](CCCNC(=N)N)NC)C(=O)N[C@@H](CC(C)C)C(=O)O , remaining at 1 h, 100 µM observed: 93

###

EXPERIMENTAL_DETAILS: in vitro
Assay type: in vitro ADME
STATED_CONDITIONS: human, plasma, pH 7.4, % Intact Peptide in Plasma after 24 h
QUANTITY_KIND: remaining at 24 h, 100 µM (%)
Dear colleague, please return just the value in %, with no unit written.

Noted for CC[C@](C)(NC(=O)[C@H](Cc1ccc(O)cc1)NC(=O)[C@@H]1CCCN1C(=O)[C@H](CCCNC(=N)N)NC(=O)[C@H](CCCNC(=N)N)NC)C(=O)N[C@@H](CC(C)C)C(=O)O : its remaining at 24 h, 100 µM reads 86

Value of remaining at 24 h, 100 µM reported for the compound CN[C@@H](CCCNC(=N)N)C(=O)N[C@@H](CCCNC(=N)N)C(=O)N1CCC[C@H]1C(=O)N[C@@H](Cc1ccc(O)cc1)C(=O)N[C@H](C(=O)N[C@@H](CC(C)C)C(=O)O)C1CCC1 is 32

Record CC[C@H](C)[C@H](NC(=O)[C@H](Cc1ccc(O)cc1)NC(=O)[C@@H]1CCCN1C(=O)[C@H](CCCNC(=N)NC(=O)NCCCCNC(=O)CN1CCN(CC(=O)O)CCN(CC(=O)O)CCN(CC(=O)O)CC1)NC(=O)[C@H](CCCNC(=N)N)NC)C(=O)N[C@@H](CC(C)C)C(=O)O . Reported remaining at 24 h, 100 µM: 15

###

EXPERIMENTAL_DETAILS: in vitro
Format: in vitro ADME
STATED_CONDITIONS: human, plasma, pH 7.4, % Intact Peptide in Plasma after 48 h
Residues, ends and D or L forms follow the SMILES beside them.
remaining at 48 h, 100 µM under 90% gets 1.0, anything at or over 90% gets 0.0.

Prompt line: I'd appreciate it if you could check whether CC[C@H](C)[C@H](NC(=O)[C@H](NC(=O)[C@@H]1CCCN1C(=O)[C@H](CCCNC(=N)N)NC(=O)[C@H](CCCNC(=N)N)NC)C(C)(C)c1ccc(O)cc1)C(=O)N[C@@H](CC(C)C)C(=O)O [Compound 49] has remaining at 48 h, 100 µM smaller than 90%.
Response line: 0.0

Prompt line: Given CN[C@@H](CCCNC(=N)N)C(=O)N[C@@H](CCCNC(=N)N)C(=O)N1CCC[C@H]1C(=O)N[C@@H](Cc1ccc(O)cc1)C(=O)N[C@H](C(=O)N[C@@H](CC(C)C)C(=O)O)C1CCC1 [Compound 42] , is recorded remaining at 48 h, 100 µM strictly lower than 90%?
Response line: 1.0

Prompt line: Lab log: compare recorded remaining at 48 h, 100 µM with 90%; is it strictly lower for CCC(CC)(NC(=O)[C@H](Cc1ccc(O)cc1)NC(=O)[C@@H]1CCCN1C(=O)[C@H](CCCNC(=N)N)NC(=O)[C@H](CCCNC(=N)N)NC)C(=O)N[C@@H](CC(C)C)C(=O)O [Compound 39] ?
Response line: 0.0

Prompt line: Dear colleague, could you confirm whether remaining at 48 h, 100 µM of CC[C@H](C)[C@H](NC(=O)[C@H](Cc1ccc(O)cc1)NC(=O)[C@@H]1CCCN1C(=O)[C@H](CCCNC(=N)NC(=O)NCCCCNC(=O)CN1CCN(CC(=O)O)CCN(CC(=O)O)CCN(CC(=O)O)CC1)NC(=O)[C@H](CCCNC(=N)N)NC)C(=O)N[C@@H](CC(C)C)C(=O)O [Compound 20] falls below 90%? Thanks.
Response line: 1.0

Prompt line: Find out if reported remaining at 48 h, 100 µM for CN[C@@H](CCCNC(=N)N)C(=O)N[C@@H](CCCNC(=N)N)C(=O)N1CCC[C@H]1C(=O)N[C@@H](Cc1ccc(O)cc1)C(=O)N[C@@H](CC1CC1)C(=O)N[C@@H](CC(C)C)C(=O)O [Compound 41] is less than 90%
Response line: 1.0

Prompt line: remaining at 48 h, 100 µM strictly < 90% for this compound? CN[C@@H](CCCNC(=N)N)C(=O)N[C@@H](CCCNC(=N)N)C(=O)N1CCC[C@H]1C(=O)N[C@@H](Cc1ccc(O)cc1)C(=O)N[C@H](C(=O)N[C@@H](CC(C)C)C(=O)O)C1CC1 [Compound 40]
Response line: 1.0

Prompt line: Does the reported remaining at 48 h, 100 µM of the following compound sit strictly below 90%? CC[C@H](C)[C@H](NC(=O)[C@H](Cc1ccc(O)cc1)NC(=O)[C@@H]1CCCN1C(=O)[C@H](CCCNC(=N)N)NC(=O)[C@H](CCCNC(=N)N)NC)C(=O)N[C@@](C)(CC(C)C)C(=O)O [Compound 47]
Response line: 1.0

Prompt line: # check: remaining at 48 h, 100 µM < 90% for CC(C)C[C@H](NC(=O)[C@@H](NC(=O)[C@H](Cc1ccc(O)cc1)NC(=O)[C@@H]1CCCN1C(=O)[C@H](CCCNC(=N)NC(=O)NCCCCN)N(C)C(=O)[C@@H](N)CCCNC(=N)N)C(C)(C)C)C(=O)O [Compound 11]
Response line: 0.0

Prompt line: API: query returns whether the compound falls strictly under 90% in remaining at 48 h, 100 µM. Query: CC[C@H](C)[C@H](NC(=O)[C@H](Cc1ccc(O)cc1)NC(=O)[C@@H]1CCCN1C(=O)[C@H](CCCNC(=N)N)NC(=O)[C@H](CCCNC(=N)N)NC)C(=O)N[C@@H](CC1CC1)C(=O)O [Compound 46]
Response line: 1.0

Prompt line: Consider CC[C@H](C)[C@H](NC(=O)[C@H](Cc1ccc(O)cc1)NC(=O)[C@@H]1CCCN1C(=O)[C@H](CCCNC(=N)NC(=O)NCCCCN)NC(=O)[C@H](CCCNC(=N)N)NC)C(=O)N[C@@H](CC(C)C)C(=O)O [Compound 9] . Does its remaining at 48 h, 100 µM lie strictly below 90%?
Response line: 1.0

Prompt line: Consider CN[C@@H](CCCNC(=N)N)C(=O)N[C@@H](CCCNC(=N)NC(=O)NCCCCN)C(=O)N1CCC[C@H]1C(=O)N[C@@H](Cc1ccc(O)cc1)C(=O)N[C@H](C(=O)N[C@@H](CC(C)C)C(=O)O)C(C)(C)C [Compound 8] . Does its remaining at 48 h, 100 µM lie strictly below 90%?
Response line: 0.0

Prompt line: Identify whether the compound CN[C@@H](CCCNC(=N)N)C(=O)N[C@@H](CCCNC(=N)N)C(=O)N1CCC[C@H]1C(=O)N[C@@H](Cc1ccc(O)cc1)C(=O)N[C@@](C)(CC(C)C)C(=O)N[C@@H](CC(C)C)C(=O)O [Compound 44] (HELM PEPTIDE1{[meR].R.P.Y.[CC(C)C[C@](C)(N[*:1])C(=O)[*:2]].L}$$$$V2.0) records remaining at 48 h, 100 µM below 90%.
Response line: 1.0

Prompt line: Hello, is remaining at 48 h, 100 µM of the following compound strictly smaller than 90%? CC[C@@H](C)[C@H](NC(=O)[C@H](Cc1ccc(O)cc1)NC(=O)[C@@H]1CCCN1C(=O)[C@H](CCCNC(=N)N)NC(=O)[C@H](CCCNC(=N)N)NC)C(=O)N[C@@H](CC(C)C)C(=O)O [Compound 38]
Response line: 1.0

Prompt line: Decide: remaining at 48 h, 100 µM of CC[C@](C)(NC(=O)[C@H](Cc1ccc(O)cc1)NC(=O)[C@@H]1CCCN1C(=O)[C@H](CCCNC(=N)N)NC(=O)[C@H](CCCNC(=N)N)NC)C(=O)N[C@@H](CC(C)C)C(=O)O [Compound 45] strictly below 90%?
Response line: 1.0

Prompt line: Take the compound CN[C@@H](CCCNC(=N)N)C(=O)N[C@@H](CCCNC(=N)N)C(=O)N1CCC[C@H]1C(=O)N[C@@H](Cc1ccc(O)cc1)C(=O)N[C@H](C(=O)N[C@@H](CC(C)C)C(=O)O)C1CCCC1 [Compound 43] and say whether its remaining at 48 h, 100 µM is less than 90%.
Response line: 1.0
